Origin of values: PubChem BioAssay (NCI)

- System: RPMI-8226 leukemia
- MEASUREMENT_DESCRIPTION: NCI tumour cell line growth inhibition, 48 h; in the data active = GI50 below about 0.43 µM; inactive = the rest
# output must be one of 1 = active, 0 = inactive

-- ask # outcome recorded in this test, key = Cc1ccc(C(CC(=O)c2ccccc2)C2C(=O)NC(=O)NC2=O)cc1 (centres undefined)
-- reply 0

-- ask Each molecule tested received a call. Report the one for Nc1nc(N)c2nc(CNc3ccc(C(=O)NC(CC(=O)O)C(=O)O)cc3)cnc2n1 (centres undefined) .
-- reply 0

-- ask What outcome does the record of this test show for CCCCC[C@H]1C/C=C2/C(=O)C=C[C@@H]2C/C=C\CCCC(=O)O[C@@H](CCCCC)C/C=C2/C(=O)C=C[C@@H]2C/C=C\CCCC(=O)O1 ?
-- reply 1

-- ask Outcome? NC(=O)c1ccc(I)c(N=O)c1
-- reply 0

====

- Tested on: SF-295 CNS
- MEASUREMENT_DESCRIPTION: NCI tumour cell line growth inhibition, 48 h
Exercise: state measured TGI for each of the molecules provided.
// units = µM; emit number, no label

-- ask Report measured TGI; entry is CN(C)CCN(C)c1ccc2c(=O)n(CCN(C)C)c(=O)n3c4ccccc4c(=O)c1c23
-- reply 8.38

-- ask Consider the molecule O=S(=O)(O)C(=Nc1cccc(Cc2ccccc2)c1)Nc1cccc(Cc2ccccc2)c1 and give its recorded TGI.
-- reply 34.3

-- ask Give TGI for the following molecule: c1csc(-c2cn3nc(-c4c[nH]c5ccccc45)sc3n2)c1
-- reply 6.44

-- ask Note down TGI recorded for CN1CCN(CCOc2ccc(-c3cnc4c(-c5ccc(C(F)(F)F)cc5)cnn4c3)cc2)CC1
-- reply 3.31

-- ask Look up and report measured TGI for this entry: CNC(=O)c1cccc2cc(Oc3ccnc4cc(OCC5(N)CC5)c(OC)cc34)ccc12
-- reply 25

-- ask Tell me measured TGI for COc1ccc2c(c1)[nH]c1c(/C=C/c3ccccc3)nccc12 please.
-- reply 24.2

-- ask Using known records, supply TGI for CC(=O)C(=Cc1ccc(C=C(C(C)=O)C(C)=O)cc1)C(C)=O
-- reply 7.97

-- ask Give TGI for the following molecule: CC1CC[C@@]2(OC1)OC1C[C@H]3[C@@H]4CC=C5CC(OC6OC(CO)C(OC7OC(CO)C(O)C(OC8OCC(O)C(O)C8O)C7OC7OC(CO)C(O)C(O)C7O)C(O)C6O)CCC5(C)[C@H]4CCC3(C)C1[C@@H]2C (some centres not stated)
-- reply 21.2

-- ask Provide only the value of recorded TGI for CC[C@]1(Cc2ccc(OC)c(OC)c2)C=[N+]([O-])O[C@H](OC2CCCC2(c2ccccc2)c2ccccc2)[C@@H]1OC(C)=O (some centres not stated)
-- reply 17.5

-- ask Read off the recorded TGI for CCN(CC)/C(Sc1ccccc1)=C(\C(Cl)=C(Cl)Cl)[N+](=O)[O-]
-- reply 37.1

-- ask Fill in reported TGI for this entry: Cc1cc(N(CCC#N)CCC#N)ccc1/C(N=Nc1ccc(C(=O)O)cc1)=N\NC(=O)c1cc(Cl)ccc1O
-- reply 34.7

====

What TGI was measured for each of the following?
- System: NCI-H226 lung
- MEASUREMENT_DESCRIPTION: NCI tumour cell line growth inhibition, 48 h

-- ask Given the compound COC(=O)c1sc(=S)sc1SCc1ccc(CSc2sc(=S)sc2C(=O)OC)cc1 , write its reported TGI.
-- reply > 100 µM

-- ask Provide one value: measured TGI of Cc1cc(C(=C2C=CC(=Nc3ccccc3)C=C2)c2ccc(Nc3ccccc3)cc2)ccc1N
-- reply 1.72 µM

-- ask Quickly give me recorded TGI for COC(=O)C1CN=CN1CCc1ccccc1 (configuration not stated)
-- reply > 100 µM

-- ask Item CC(=O)NNc1nc(C)c(C(=O)/C=C/c2ccccc2Cl)s1 : provide TGI
-- reply > 100 µM

-- ask Hello, please tell me recorded TGI for this one: CCCN(CCCc1ccccc1)CCc1ccc2[nH]c(=S)[nH]c2c1
-- reply > 100 µM

-- ask Identify TGI associated with the compound COc1ccc(C(=O)c2sc(Nc3ccc(Cl)cc3)nc2N)cc1
-- reply > 100 µM

-- ask Give TGI for the following compound: CCOC(=O)c1cn2c(n1)sc1c(Cl)c(Cl)ccc12
-- reply 51.6 µM

-- ask Assign TGI to the following record: c1ccc(C(c2ccccc2)c2cccnc2)cc1
-- reply > 100 µM

-- ask # return recorded TGI for input CC(=O)O[C@H]1C(=O)[C@@]2(C)[C@H]([C@H](OC(=O)c3ccccc3)[C@]3(O)C[C@H](OC(=O)[C@H](O)[C@@H](NC(=O)c4cccc(N=[N+]=[N-])c4)c4ccccc4)C(C)=C1C3(C)C)[C@]1(OC(C)=O)CO[C@@H]1C[C@@H]2O
-- reply > 25 µM

-- ask Assign TGI to the following record: COCC(O)Cn1ccnc1[N+](=O)[O-] (configuration not stated)
-- reply > 100 µM

-- ask Tell me measured TGI for O=c1ccn([C@@H]2C[C@@H]2CO)c(=O)[nH]1 please.
-- reply > 100 µM

-- ask For the compound CC(C)OCC1CC(CC(=O)Nc2nncs2)C(=O)O1 (configuration not stated) , give its measured TGI value.
-- reply > 100 µM

-- ask Fill in reported TGI for this entry: CN(C)C(=S)/N=c1\ssc(=S)n1Cc1ccccc1
-- reply 28 µM

-- ask Name the recorded TGI of the compound listed here: COc1cc2oc3cc(=O)cc4oc(-c5ccccc5)cc(c2c2c1CCC(c1ccccc1)O2)c43 (configuration not stated)
-- reply > 100 µM

-- ask For the compound OCC(O)C(Cl)CCl (configuration not stated) , give its reported TGI.
-- reply > 100 µM

-- ask Return reported TGI. Input compound: C=C1/C(=C\C=C2/CCC[C@]3(C)[C@@H]([C@H](C)CCCC(C)(C)O)CC[C@@H]23)C[C@@H](OC(=O)CBr)C[C@@H]1O
-- reply 22.1 µM

-- ask Specify reported TGI for the compound shown: O=[N+]([O-])c1ccc2c(c1)Cc1cc(N=Cc3ccc4c(c3)OCO4)ccc1-2
-- reply > 100 µM
